Quick reference for LD50 among some molecules
assay: Toxicity test (LD50); conditions: mouse, in vivo; ip, ICR male mice
Residues, ends and D or L forms follow the SMILES beside them. *: point of attachment. Boc = CC(C)(C)OC(=O)*
Entry rule: numbers only, all in mg/kg.

## Task Reported LD50, molecule CC(C)(C)OC(=O)N[C@@H](Cc1ccc(O)cc1)C(=O)N1CCC[C@H]1C=O [t-Butyloxycarbonyl-tyrosyl-prolinal, t-butyloxycarbonyl-tyrosyl-prolinal] (Boc-Tyr-Pro-aldehyde) : ____
## Result 933

## Task Reported LD50, molecule C[C@H](NC(=O)OC(C)(C)C)C(=O)N1CCC[C@H]1C=O [t-Butyloxycarbonyl-alanyl-prolinal, t-butyloxycarbonyl-alanyl-prolinal] (Boc-Ala-Pro-aldehyde) : ____
## Result 796
